Measured soluble fraction (log2) accompanies every entry in the list below.
- protocol_description: soluble fraction after stress (log2 fold change); higher = more stays soluble; pooled small domains, quantitative proteomics
- run_conditions: stress: pH 4
Just the number, please, no unit attached.

// worked examples, soluble fraction (log2) included
HMEKYTDDLEIAAEIARLETLMEGNGRVLIRPSGTEPLVRVMIEGNDIEQITKLAEDLAALLNKRF
-0.842
HMEDTFEYPVSVNGKLRFKIELPVSMEKDEIRNIVLNDERAKKWLATGTLTNLIVVPNRIINIVIK
0.0025

Form field soluble fraction (log2), entry HMLSTGIIIGDNVALRKTASSNGGIITRLDEGTVVKILASNVNAEWYQVEAGTKTGYVNRLYVNID : -0.345

Form field soluble fraction (log2), entry HMNREYELTAEESGQRLDKYLAGEMTDLSRSRIKELVQAGEILVNGKKSKVSYKVQKDDLIQVIVLPLE : -0.0759

Form field soluble fraction (log2), entry HMPDFLAELAARMERDAVTEAQIRQVVAQKGHYPEEVSPAQYHPDFFRQWLFPHWEKIVDVIRSSPEYTP : -0.539

Form field soluble fraction (log2), entry HMSQDVLLKRSGDQIEVKITEVGEDYLKYKKKGFENGPDFKINTSDVFMVTFANGEKMMFEES : -2.15

Form field soluble fraction (log2), entry HMRDYDFGNLLYKLRIESGYTQKDIADMLGVTDKAVSKWENGIAKPTTNNIKLLSTIYNVSVEELLNG : -0.754

Form field soluble fraction (log2), entry HMKVSRTAVKLHHANAVEVAKKLQPLFVVGDVQIEPVKDAGIILLKGPASTLADLRESIVQMDHTA : -0.309

Form field soluble fraction (log2), entry HMEGTEILVNIRKGMTKEEIASLLVSKGLVEDKNTFLVQTALYTSDRYPIQPGSYTLNTAQTPEEMLAVMT : -0.073

Form field soluble fraction (log2), entry HMSNYPYLLRTYEGKLAVFTDDLVQPDLVFDVYVRTLPELDQQQLSRGIRVKTYDELTSMIEDYI : -0.956

Form field soluble fraction (log2), entry HMAFIEADIGKRIKSLRNKKRITLESLAAETGFTKGYLSKVETSEKAPPVSTLGSIARALGVSISTLLGE : 0.144

Form field soluble fraction (log2), entry HMTQLPEVPVERGMVLEEVQSGWVGAVTRVEKSGGMHVVALEDRRGKSRSFRLGFGFLLEGQPIRLMPPAP : -0.882

Form field soluble fraction (log2), entry HMRDISTDTSAWTFQDIKRYYDPQDLLTEKQVGQALSLIKGRNLNPLLNEVYIVAYKKKNGGAEFSLIV : -0.286

Form field soluble fraction (log2), entry HMYKNLRAFRESLGMTQKDFAASLSIGLSTYNGYEVGAREPKSDFWIAVARKYGVTIDYLMGFSDDPHK : 0.195

Form field soluble fraction (log2), entry HMNVDSLIGQTARVIVDINNNDSIGYALVGGQEWTARAENDNDIIPKDTLVEIVGVSGVKLIVRRKE : -0.0794

Form field soluble fraction (log2), entry HMELNKNDLKIIKNISHIYPYFTPVKILQLILSKKFKTIDYNKILKSTSILTTDRSHLYYILNN : 0.22

----------
- protocol_description: soluble fraction after stress (log2 fold change); higher = more stays soluble; pooled small domains, quantitative proteomics
- run_conditions: stress: pH 4
observable: soluble fraction (log2)

HMIEGETPEQTMERVSKDPEIVQILQDPVMQGILAQARENPAALQDHMKNPEVYKKINMLIAAGVIRT
-0.113
HMSFNSQENKSVLWQFLLENNFFIGLSDKKFNKVKDIFEKNIQSISIVNDSISNKNKILIQKMMEELELL
-1.46

Form field soluble fraction (log2), entry HMNTKHVFIIEQDDEKKRLDIFLVEKLQDSRSFLKKGIVEGWVKVNESVVKPNYKLKQKDQITVIIPP : -0.396

Form field soluble fraction (log2), entry HMQARLPFSFAKRHGVILLAATGEGQSDVIYKSGFDIGALAEVRRFVAGEIALKEVDGPSFDRQLTLTYQN : -1.34
